# assayed.target: TEC (Homo sapiens)
# assay.explanation: Inhibition of a panel of kinases (in vitro HotSpot kinase assay, 33P-ATP, 1 μM ATP)
# Format: biochemical
# test.settings: ratio of TEC IC50 to Btk IC50 (selectivity)
Overview of reported TEC/Btk across a group of compounds:

CC(C)(C)c1noc(C(=O)NC2(c3ccc(-c4ccnc5[nH]nc(N[C@@H]6CCNC6)c45)cc3)CC2)n1 :: >100
CC1(C(=O)N2CC[C@H](Nc3n[nH]c4nccc(-c5ccc(CNC(=O)c6noc(C(C)(C)C)n6)c(F)c5)c34)C2)COC1 :: >100

Attention now turns to another entry.
What value of measured TEC/Btk is listed for CC(C)(C)c1ccc(C(=O)NCc2ccc(-c3ccnc4[nH]nc(N[C@H]5CCNC5)c34)cc2F)cc1 ? >100

---

These compounds were tested on UniProtKB P42680; pIC50 is the recorded read-out.
pIC50: −log10 of the molar value.

CC1(C)Cc2cc(C(=O)NCc3ccc(-c4ccnc5[nH]nc(N[C@@H]6CCNC6)c45)cc3F)[nH]c2C1 :: < 5.00
CC(C)(C)c1ccc(C(=O)Nc2cccc(-c3ccnc4[nH]nc(N[C@@H]5CCNC5)c34)c2CO)cc1 :: < 5.00

Attention now turns to another entry.
What value of measured pIC50 is listed for C[C@H]1NCCC[C@H]1Nc1n[nH]c2nccc(-c3ccc(CNC(=O)c4noc(C(C)(C)C)n4)c(F)c3)c12 ? < 5.00

---

Protein target, amino acids: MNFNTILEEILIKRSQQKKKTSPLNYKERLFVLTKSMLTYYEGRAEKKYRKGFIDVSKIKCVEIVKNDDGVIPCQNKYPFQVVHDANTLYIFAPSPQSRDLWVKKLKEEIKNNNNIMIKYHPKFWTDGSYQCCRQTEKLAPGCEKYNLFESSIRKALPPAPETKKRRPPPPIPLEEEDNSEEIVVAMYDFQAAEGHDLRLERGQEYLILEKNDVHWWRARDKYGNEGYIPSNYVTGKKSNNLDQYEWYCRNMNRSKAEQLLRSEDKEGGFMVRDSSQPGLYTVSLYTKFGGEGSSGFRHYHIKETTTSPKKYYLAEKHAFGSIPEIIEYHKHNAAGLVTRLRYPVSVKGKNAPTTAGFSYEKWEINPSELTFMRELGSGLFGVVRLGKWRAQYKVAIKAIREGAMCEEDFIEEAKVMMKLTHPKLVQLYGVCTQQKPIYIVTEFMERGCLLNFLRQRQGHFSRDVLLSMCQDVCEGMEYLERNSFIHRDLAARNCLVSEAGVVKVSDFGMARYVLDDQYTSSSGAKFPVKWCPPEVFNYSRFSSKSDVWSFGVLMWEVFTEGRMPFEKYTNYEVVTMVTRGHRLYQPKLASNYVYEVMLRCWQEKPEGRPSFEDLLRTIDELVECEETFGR
parameter: IC50 (nM)

These recorded examples may help you get a feel for the data.
C[C@@H](NC(=O)c1cc(C(C)(C)O)on1)c1ccc(-c2ccnc3[nH]nc(N4CCOCC4)c23)cc1 :: 685
C=CC(=O)N1CC[C@@H](Nc2n[nH]c3nccc(-c4ccc(CNC(=O)c5nn6c(c5C)OCCC6)c(F)c4)c23)C1 :: 344
CC(=O)N1CC[C@H](Nc2n[nH]c3nccc(-c4ccc(CNC(=O)c5nc(C(C)(C)C)no5)c(F)c4)c23)C1 :: 8070
C=CC(=O)N1C[C@H](Nc2n[nH]c3nccc(-c4ccc(CNC(=O)c5cc(C(C)(C)C)on5)c(F)c4)c23)CC[C@@H]1C :: 47

P: C=CC(=O)N[C@@H]1CCN(c2n[nH]c3nccc(-c4ccc(CNC(=O)c5noc(C(C)(C)C)n5)c(F)c4)c23)C1
Q: CC(C)(C)c1nc(C(=O)NCc2ccc(-c3ccnc4[nH]nc(N[C@H]5CC[C@H](O)CC5)c34)cc2F)no1
R: C=CC(=O)N1CC[C@@H](Nc2n[nH]c3nccc(-c4ccc(CNC(=O)c5cnn(C(C)(C)C)c5)c(F)c4)c23)C1
Ascending by IC50, please: list the molecules accordingly. Write the labels, ordered according to the request. P, R, Q
(P: 20 nM, R: 57 nM, Q: 3170 nM)

A: C=CC(=O)N1CC[C@@H](Nc2n[nH]c3nccc(-c4cccc(NC(=O)c5ccc(C(C)(C)C)cc5)c4C)c23)C1
B: C[C@H]1CC[C@@H](Nc2n[nH]c3nccc(-c4ccc(CNC(=O)c5noc(C(C)(C)C)n5)c(F)c4)c23)CN1C(=O)C1CC1
Compare reported IC50 values for A and B . Which is lower? Returns: label corresponding to the selected item. B
(B: 698 nM, A: 2460 nM)

---

# assayed.target: Btk (Homo sapiens, UniProt Q06187)
# Construct: purified from insect cells as a full-length construct containing a N-terminal 6X-His tag; His6 (N); made in house; host or cells: insect cells (Method C)
# Sequence (Q06187 whole entry): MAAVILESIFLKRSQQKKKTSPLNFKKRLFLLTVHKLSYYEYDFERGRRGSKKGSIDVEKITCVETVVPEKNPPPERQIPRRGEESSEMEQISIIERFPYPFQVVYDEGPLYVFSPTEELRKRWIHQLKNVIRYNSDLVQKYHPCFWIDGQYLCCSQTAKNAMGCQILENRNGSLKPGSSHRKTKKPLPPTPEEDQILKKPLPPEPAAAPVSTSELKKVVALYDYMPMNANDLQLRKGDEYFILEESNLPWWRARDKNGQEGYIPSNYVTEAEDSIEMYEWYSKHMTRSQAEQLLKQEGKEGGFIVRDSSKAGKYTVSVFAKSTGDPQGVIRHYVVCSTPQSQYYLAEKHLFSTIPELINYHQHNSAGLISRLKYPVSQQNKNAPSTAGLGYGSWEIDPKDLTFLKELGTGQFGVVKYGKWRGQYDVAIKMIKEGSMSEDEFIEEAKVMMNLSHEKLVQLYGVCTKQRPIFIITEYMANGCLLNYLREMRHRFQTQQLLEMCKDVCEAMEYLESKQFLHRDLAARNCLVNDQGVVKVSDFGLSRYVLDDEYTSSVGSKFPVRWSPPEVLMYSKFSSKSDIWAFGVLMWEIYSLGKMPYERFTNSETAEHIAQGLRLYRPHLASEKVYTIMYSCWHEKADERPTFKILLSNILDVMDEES
# assay.explanation: Btk in vitro inhibitory activity (one of Method A TR-FRET, Method B electrophoretic mobility shift, Method C radiometric filter binding)
# Assay type: biochemical
# test.settings: wild-type Btk; read-out: Btk-WT IC50
pIC50: −log10 of the molar value.
parameter: pIC50

These recorded examples may help you get a feel for the data.
C=CC(=O)N1CC[C@@H](Nc2n[nH]c3nccc(-c4ccc(CNC(=O)c5nn6c(c5C)OCCC6)c(F)c4)c23)C1 [Example 376] :: 8.10
CC(C)(C)c1noc(C(=O)NCc2ccc(-c3ccnc4[nH]nc(C5CC5)c34)cc2F)n1 [Example 255] :: 8.90
CC(C)(C)c1cccc(C(=O)NCc2ccc(-c3ccnc4[nH]nc(N[C@@H]5CCNC5)c34)cc2F)c1 [Example 62] :: 6.06
CC(C)(C)c1nc(C(=O)NCc2ccc(-c3ccnc4[nH]nc(N[C@H]5CCNC5)c34)cc2F)no1 [Compound 50] :: 8.49

1: CN1CCCN([C@@H]2CCN(c3n[nH]c4nccc(-c5ccc(CNC(=O)c6nc(C(C)(C)C)no6)c(F)c5)c34)C2)C1=O [Example 241]
2: C=CC(=O)N1CCC[C@@H](Nc2n[nH]c3nccc(-c4ccc(CNC(=O)c5cc(C(C)C)on5)c(F)c4)c23)[C@H]1C [Example 173]
Hi there! Just curious which has the higher pIC50 between 1 and 2 . Returns: label corresponding to the selected item. 2

---

# assayed.target: panel of kinases (Homo sapiens)
# Sequence (P51813 whole entry): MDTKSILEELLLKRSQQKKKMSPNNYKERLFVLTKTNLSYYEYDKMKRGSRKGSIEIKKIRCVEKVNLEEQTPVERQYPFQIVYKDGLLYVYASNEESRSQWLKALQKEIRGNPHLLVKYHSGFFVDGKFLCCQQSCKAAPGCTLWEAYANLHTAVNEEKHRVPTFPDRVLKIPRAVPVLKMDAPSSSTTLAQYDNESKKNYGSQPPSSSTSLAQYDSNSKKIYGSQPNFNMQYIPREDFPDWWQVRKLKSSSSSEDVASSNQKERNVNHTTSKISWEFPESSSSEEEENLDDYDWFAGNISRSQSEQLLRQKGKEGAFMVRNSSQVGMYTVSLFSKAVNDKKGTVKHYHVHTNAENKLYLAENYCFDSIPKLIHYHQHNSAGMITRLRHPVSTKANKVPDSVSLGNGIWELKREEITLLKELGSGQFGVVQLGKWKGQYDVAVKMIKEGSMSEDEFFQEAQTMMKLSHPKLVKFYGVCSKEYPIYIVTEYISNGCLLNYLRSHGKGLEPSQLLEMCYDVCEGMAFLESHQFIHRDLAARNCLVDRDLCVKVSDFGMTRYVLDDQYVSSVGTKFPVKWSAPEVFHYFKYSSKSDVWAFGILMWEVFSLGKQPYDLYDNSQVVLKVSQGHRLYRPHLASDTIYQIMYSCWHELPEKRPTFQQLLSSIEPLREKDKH
parameter: IC50 (nM)

C=CC(=O)N1CCC(Nc2n[nH]c3nccc(-c4ccc(CNC(=O)c5ccc(C(C)(C)C)cc5)c(F)c4)c23)CC1 :: 897

a: CN(C)C(=O)N1CC[C@@H](Nc2n[nH]c3nccc(-c4ccc(C5(NC(=O)c6nc(C(C)(C)C)no6)CC5)cc4)c23)C1
b: C=CC(=O)N1CC[C@@H](Nc2n[nH]c3nccc(-c4cc(F)cc(CNC(=O)c5ccc(C(C)(C)C)cc5)c4)c23)C1
c: C[C@H]1CC[C@@H](Nc2n[nH]c3nccc(-c4ccc(CNC(=O)c5noc(C(C)(C)C)n5)c(F)c4)c23)CN1C(=O)N1CCOCC1
d: C[C@@H](NC(=O)c1nc(C(C)(C)C)no1)c1ccc(-c2ccnc3[nH]nc(N4CCNCC4)c23)cc1
# rank_down: sort by IC50, max first Write the labels, ordered according to the request. a, d, c, b
(a: 5960 nM, d: 2670 nM, c: 856 nM, b: 510 nM)

---

Overview of reported TEC/Btk across a group of molecules:
# assayed.target: TEC (Homo sapiens)
# Sequence (P42680 1-631): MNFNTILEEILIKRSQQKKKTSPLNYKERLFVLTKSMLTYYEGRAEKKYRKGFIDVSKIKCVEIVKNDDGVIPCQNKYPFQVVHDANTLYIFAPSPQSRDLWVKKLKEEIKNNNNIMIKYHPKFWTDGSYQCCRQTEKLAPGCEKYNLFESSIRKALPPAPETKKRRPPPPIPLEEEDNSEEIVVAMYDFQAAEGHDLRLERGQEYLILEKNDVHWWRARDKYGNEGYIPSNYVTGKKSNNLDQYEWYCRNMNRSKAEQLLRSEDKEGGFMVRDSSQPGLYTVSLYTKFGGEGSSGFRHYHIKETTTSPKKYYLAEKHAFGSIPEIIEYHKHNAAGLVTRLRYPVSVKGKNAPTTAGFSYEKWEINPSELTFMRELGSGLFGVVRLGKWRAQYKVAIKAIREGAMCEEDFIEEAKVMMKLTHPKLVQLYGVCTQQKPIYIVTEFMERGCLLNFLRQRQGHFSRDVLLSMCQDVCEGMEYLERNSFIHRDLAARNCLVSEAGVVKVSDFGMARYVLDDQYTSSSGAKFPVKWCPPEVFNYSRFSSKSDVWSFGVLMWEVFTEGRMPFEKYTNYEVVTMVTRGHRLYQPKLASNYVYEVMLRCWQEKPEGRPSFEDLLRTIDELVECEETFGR
# assay.explanation: Inhibition of a panel of kinases (in vitro HotSpot kinase assay, 33P-ATP, 1 μM ATP)
# Format: biochemical
# test.settings: ratio of TEC IC50 to Btk IC50 (selectivity)

CC(=O)N1CCC[C@H](Nc2n[nH]c3nccc(-c4ccc(CNC(=O)c5nc(C(C)(C)C)no5)c(F)c4)c23)C1 :: >100
C[C@H]1NCCC[C@H]1Nc1n[nH]c2nccc(-c3ccc(CNC(=O)c4noc(C(C)(C)C)n4)c(F)c3)c12 :: >100
C[C@@H]1[C@H](Nc2n[nH]c3nccc(-c4ccc(CNC(=O)c5noc(C(C)(C)C)n5)c(F)c4)c23)CCCN1CC#N :: 197
CC(C)c1cc(C(=O)NCc2ccc(-c3ccnc4[nH]nc(N[C@@H]5CCCN[C@@H]5C)c34)cc2F)no1 :: >100
CCNC(=O)N1C[C@H](Nc2n[nH]c3nccc(-c4ccc(CNC(=O)c5nc(C(C)(C)C)no5)c(F)c4)c23)CC[C@@H]1C :: 718

What value of measured TEC/Btk is listed for CC(C)(C)c1ccc(C(=O)NCc2ccc(-c3ccnc4[nH]nc(NC5CCNCC5)c34)cc2F)cc1 ? >100

What value of measured TEC/Btk is listed for CCc1cc(C(=O)NCc2ccc(-c3ccnc4[nH]nc(N[C@@H]5CCCN(C(=O)N(C)C)[C@@H]5C)c34)cc2F)no1 ? >100
